Target: bovine milk XO (Bos taurus)
Construct: The bovine milk XO activity was assayed; from tissue; host or cells: bovine milk
Test: XO kinetic assay (Lineweaver–Burk and Dixon plots, reversibility, preincubation)
Format: biochemical
Conditions: secondary plot of slope, Equation (2); read-out: KI (inhibitor binding to free enzyme)
reported metric: pKi
// scale note: pKi = -log10(conc_M); give the bare number

Reported pKi of COc1ccc(-c2cc(=O)c3c(O)cc(O)cc3o2)cc1 [Compound 7, Acacetin] : 6.24

---

Target: bovine milk XO (Bos taurus)
Construct: The bovine milk XO activity was assayed; from tissue; host or cells: bovine milk
Assay: XO kinetic assay (Lineweaver–Burk and Dixon plots, reversibility, preincubation)
Assay type: biochemical
Settings: Dixon plots; read-out: Xanthine Oxidase Ki
reported metric: pKi
// scale note: pKi = -log10(conc_M); give the bare number

Reported pKi of COc1ccc(-c2cc(=O)c3c(O)cc(O)cc3o2)cc1 [Compound 7, Acacetin] : 6.21

---

Biological target: bovine milk XO (Bos taurus, UniProt P80457)
Construct: The bovine milk XO activity was assayed; from tissue; host or cells: bovine milk
Sequence (P80457 whole entry): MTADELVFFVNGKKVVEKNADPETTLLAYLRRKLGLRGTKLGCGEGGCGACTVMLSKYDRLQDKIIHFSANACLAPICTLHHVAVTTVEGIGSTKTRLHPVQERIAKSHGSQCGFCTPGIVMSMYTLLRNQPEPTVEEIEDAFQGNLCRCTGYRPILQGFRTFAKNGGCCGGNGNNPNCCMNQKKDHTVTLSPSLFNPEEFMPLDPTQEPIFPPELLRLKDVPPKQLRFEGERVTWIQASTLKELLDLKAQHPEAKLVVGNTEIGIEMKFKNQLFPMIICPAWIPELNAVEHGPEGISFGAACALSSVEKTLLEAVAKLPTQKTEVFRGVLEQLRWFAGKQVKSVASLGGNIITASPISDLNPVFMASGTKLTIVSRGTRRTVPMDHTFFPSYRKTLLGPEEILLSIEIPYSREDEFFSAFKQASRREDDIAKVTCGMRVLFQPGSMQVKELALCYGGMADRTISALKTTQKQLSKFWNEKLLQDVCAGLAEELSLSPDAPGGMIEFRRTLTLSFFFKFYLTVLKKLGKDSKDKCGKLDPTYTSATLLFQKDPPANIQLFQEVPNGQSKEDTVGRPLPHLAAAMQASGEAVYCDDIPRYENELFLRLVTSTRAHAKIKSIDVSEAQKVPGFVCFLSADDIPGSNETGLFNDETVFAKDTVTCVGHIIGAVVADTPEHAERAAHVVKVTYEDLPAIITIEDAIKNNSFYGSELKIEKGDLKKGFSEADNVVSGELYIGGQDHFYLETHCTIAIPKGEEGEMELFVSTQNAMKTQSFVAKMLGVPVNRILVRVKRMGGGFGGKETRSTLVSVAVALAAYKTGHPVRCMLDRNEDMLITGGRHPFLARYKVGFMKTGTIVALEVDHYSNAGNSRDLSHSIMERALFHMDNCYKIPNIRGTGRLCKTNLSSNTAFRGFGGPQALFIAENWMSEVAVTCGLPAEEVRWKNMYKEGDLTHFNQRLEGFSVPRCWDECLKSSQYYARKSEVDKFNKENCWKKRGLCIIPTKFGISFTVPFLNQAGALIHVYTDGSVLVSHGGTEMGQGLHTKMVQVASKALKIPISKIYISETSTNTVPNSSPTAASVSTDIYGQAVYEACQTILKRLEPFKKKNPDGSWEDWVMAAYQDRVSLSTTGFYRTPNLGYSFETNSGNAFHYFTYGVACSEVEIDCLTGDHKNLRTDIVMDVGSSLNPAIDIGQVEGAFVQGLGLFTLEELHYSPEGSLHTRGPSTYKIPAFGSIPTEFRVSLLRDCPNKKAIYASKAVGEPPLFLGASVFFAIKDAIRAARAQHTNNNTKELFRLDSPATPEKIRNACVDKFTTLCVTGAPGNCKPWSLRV
Assay: XO inhibitory activity assay (uric acid formation from xanthine, absorbance at 295 nm)
Format: biochemical
Conditions: isolated compounds and positive controls; read-out: Xanthine Oxidase IC50
Field: label. Allowed values: yes (IC50 < 30 µM) or no (IC50 >= 30 µM).

Some solved cases for reference:
{"compound": "COc1ccc(-c2cc(=O)c3c(O)cc(OC4OC(COC(=O)CC(=O)O)C(O)C(O)C4OC(C)=O)cc3o2)cc1 (stereo not shown) [Compound 6]", "assay system": "bovine milk XO (Bos taurus, UniProt P80457)", "assigned class": "no"}
{"compound": "COc1ccc(-c2cc(=O)c3c(O)cc(OC4OC(CO)C(O)C(O)C4OC(C)=O)cc3o2)cc1 [Compound 5, Acacetin 7-O-(2″-O-acetyl)-β-D-glucoside]", "assay system": "bovine milk XO (Bos taurus, UniProt P80457)", "assigned class": "no"}
{"compound": "COc1ccc(-c2cc(=O)c3c(O)cc(O)cc3o2)cc1 [Compound 7, Acacetin]", "assay system": "bovine milk XO (Bos taurus, UniProt P80457)", "assigned class": "yes"}
{"compound": "O=C(/C=C/c1ccc(O)c(O)c1)O[C@H](Cc1ccc(O)c(O)c1)C(=O)O [Compound 1, Rosmarinic acid]", "assay system": "bovine milk XO (Bos taurus, UniProt P80457)", "assigned class": "no"}
{"compound": "O=c1cc(-c2ccc(O)cc2)oc2cc(O)cc(O)c12 [Apigenin, reference compound]", "assay system": "bovine milk XO (Bos taurus, UniProt P80457)", "assigned class": "yes"}
{"compound": "COc1ccc(-c2cc(=O)c3c(O)cc(OC4OC(COC(=O)CC(=O)O)C(O)C(O)C4O)cc3o2)cc1 [Compound 4, Acacetin 7-O-(6-O-malonyl)-β-D-glucoside]", "assay system": "bovine milk XO (Bos taurus, UniProt P80457)", "assigned class": "no"}

Shift focus to the following entry.
IC50 strictly < 30 µM for this compound? COc1ccc(-c2cc(=O)c3c(O)cc(O[C@@H]4O[C@H](CO)[C@@H](O)[C@H](O)[C@H]4O)cc3o2)cc1 [Compound 3, Tilianin] yes

---

Parameter inhibition at 25 µM: see the listing below.
Target: bovine milk XO (Bos taurus, UniProt P80457)
Construct: The bovine milk XO activity was assayed; from tissue; host or cells: bovine milk
Assay: XO inhibitory activity assay (uric acid formation from xanthine, absorbance at 295 nm)
Assay type: biochemical
Settings: sample concentration 25 µM for the compound; read-out: Xanthine Oxidase Inhibition %
Remember to put the unit after the number in your answer.

Result for COc1ccc(-c2cc(=O)c3c(O)cc(O)cc3o2)cc1 [Compound 7, Acacetin] , tested on bovine milk XO (Bos taurus, UniProt P80457), inhibition at 25 µM: 94.5%

Result for O=c1cc(-c2ccc(O)cc2)oc2cc(O)cc(O)c12 [Apigenin, reference compound] , tested on bovine milk XO (Bos taurus, UniProt P80457), inhibition at 25 µM: 88.6%

Result for COc1ccc(-c2cc(=O)c3c(O)cc(OC4OC(COC(=O)CC(=O)O)C(O)C(O)C4OC(C)=O)cc3o2)cc1 (centres unmarked) [Compound 6] , tested on bovine milk XO (Bos taurus, UniProt P80457), inhibition at 25 µM: 26.2%

Result for O=C(/C=C/c1ccc(O)c(O)c1)O[C@H](Cc1ccc(O)c(O)c1)C(=O)O [Compound 1, Rosmarinic acid] , tested on bovine milk XO (Bos taurus, UniProt P80457), inhibition at 25 µM: 27.2%

Result for COc1ccc(-c2cc(=O)c3c(O)cc(OC4OC(CO)C(O)C(O)C4OC(C)=O)cc3o2)cc1 [Compound 5, Acacetin 7-O-(2″-O-acetyl)-β-D-glucoside] , tested on bovine milk XO (Bos taurus, UniProt P80457), inhibition at 25 µM: 40.7%
